System: PDC KRAS tumor spheroids with HUVEC/MSC, viability
test summary: Anticancer human tumor 349418-098-R-PDC patient-derived lung adenocarcinoma cell line growth inhibition [KRAS2]; active = viability on the fitted dose curve at most 10% of control; inactive = the rest
measurement setup: second compound 1 µM; first compound 10 µM
Please answer using one outcome listed in active, inactive

Solved entries:
| compound | target entity | label value |
| --- | --- | --- |
| CC1OCC2(CCN(c3cnc(Sc4ccnc(N)c4Cl)c(N)n3)CC2)C1N (stereo unspecified) + C=CC(=O)N1CCN(c2nc(OCC3CCCN3C)nc3c2CCN(c2cccc4cccc(C)c24)C3)CC1CC#N | PDC KRAS tumor spheroids with HUVEC/MSC, viability | inactive |
| O=C(c1cc(Cc2n[nH]c(=O)c3ccccc23)ccc1F)N1CCN(C(=O)C2CC2)CC1 + CC1OCC2(CCN(c3cnc(Sc4ccnc(N)c4Cl)c(N)n3)CC2)C1N | PDC KRAS tumor spheroids with HUVEC/MSC, viability | inactive |
| CC(C)NCC(C(=O)N1CCN(c2ncnc3c2C(C)CC3O)CC1)c1ccc(Cl)cc1 (stereo unspecified) + CNCc1ccccc1-c1csc(C(C)Nc2nc(C)nc3cc(OC)c(OC)cc23)c1 | PDC KRAS tumor spheroids with HUVEC/MSC, viability | active |
| CC1OCC2(CCN(c3cnc(Sc4ccnc(N)c4Cl)c(N)n3)CC2)C1N (stereo unspecified) + C=CC(=O)N1CCN(c2nc(=O)n(-c3c(C)ccnc3C(C)C)c3nc(-c4c(O)cccc4F)c(F)cc23)C(C)C1 | PDC KRAS tumor spheroids with HUVEC/MSC, viability | inactive |
| CC(C)NCC(C(=O)N1CCN(c2ncnc3c2C(C)CC3O)CC1)c1ccc(Cl)cc1 (stereo unspecified) + C=CC(=O)N1CCN(c2nc(=O)n(-c3c(C)ccnc3C(C)C)c3nc(-c4c(O)cccc4F)c(F)cc23)C(C)C1 | PDC KRAS tumor spheroids with HUVEC/MSC, viability | inactive |

Please let me know the test result on file for O=C(c1cc(Cc2n[nH]c(=O)c3ccccc23)ccc1F)N1CCN(C(=O)C2CC2)CC1 + C=CC(=O)N1CCN(c2nc(=O)n(-c3c(C)ccnc3C(C)C)c3nc(-c4c(O)cccc4F)c(F)cc23)C(C)C1 .
inactive

Recorded test outcome, item CC1(C)CCC(CN2CCN(c3ccc(C(=O)NS(=O)(=O)c4ccc(NCC5CCOCC5)c([N+](=O)[O-])c4)c(Oc4cnc5[nH]ccc5c4)c3)CC2)=C(c2ccc(Cl)cc2)C1 + CNCc1ccccc1-c1csc(C(C)Nc2nc(C)nc3cc(OC)c(OC)cc23)c1
active

---

Test system: PDC KRAS tumor spheroids with HUVEC/MSC, viability
test summary: Anticancer human tumor 349418-098-R-PDC cell line growth inhibition [KRAS2];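 note: spheroids exposed to compounds for seven days before readout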
measurement setup: second compound 0.316 µM; first compound 0.0316 µM; hits give low values
assay readout: viability, T/C (%)
// units = %; emit number, no label

| compound | test result |
| --- | --- |
| CC1(C)CCC(CN2CCN(c3ccc(C(=O)NS(=O)(=O)c4ccc(NCC5CCOCC5)c([N+](=O)[O-])c4)c(Oc4cnc5[nH]ccc5c4)c3)CC2)=C(c2ccc(Cl)cc2)C1 + C=CC(=O)N1CCN(c2nc(=O)n(-c3c(C)ccnc3C(C)C)c3nc(-c4c(O)cccc4F)c(F)cc23)C(C)C1 | 92.5 |

For the next question, use this compound.
Per the records, this compound ( CCNC(=O)CC1N=C(c2ccc(Cl)cc2)c2cc(OC)ccc2-n2c(C)nnc21 (configuration not stated) + C=CC(=O)N1CCN(c2nc(OCC3CCCN3C)nc3c2CCN(c2cccc4cccc(C)c24)C3)CC1CC#N ) has viability, T/C equal to 101
